- Tested on: Chrysosporium keratinophilum
- procedure.text: Antifungal activity against Chrysosporium keratinophilum at 0.5 mg/ml incubated for 3 days
- Type: functional
- experimental.context: 72 h, read-out: IZ
Overview of recorded zone of inhibition at 500 µg/mL for various compounds

record.smiles: OC(Cn1cncn1)(Cn1cncn1)c1ccc(F)cc1F
zone of inhibition at 500 µg/mL (mm): 14
//
record.smiles: COc1ccc(-c2nc3sc(-c4ccc(F)cc4)nn3c2-c2nc3cc(Cl)ccc3[nH]2)cc1
zone of inhibition at 500 µg/mL (mm): 1
//
record.smiles: Cc1nn2c(-c3nc4ccccc4[nH]3)c(-c3ccc(F)cc3)nc2s1
zone of inhibition at 500 µg/mL (mm): 3
//
record.smiles: Cc1nn2c(-c3nc4cc(Cl)ccc4[nH]3)c(-c3ccc(Cl)cc3)nc2s1
zone of inhibition at 500 µg/mL (mm): 3
//
record.smiles: COc1ccc(-c2nc3sc(-c4ccc(F)cc4)nn3c2-c2nc3cc([N+](=O)[O-])ccc3[nH]2)cc1
zone of inhibition at 500 µg/mL (mm): 2
//
record.smiles: Cc1nn2c(-c3nc4cc(Cl)ccc4[nH]3)c(-c3ccc(F)cc3)nc2s1
zone of inhibition at 500 µg/mL (mm): 6
//
record.smiles: Cc1ccc(-c2nc3sc(-c4ccc(Cl)cc4)nn3c2-c2nc3ccccc3[nH]2)cc1
zone of inhibition at 500 µg/mL (mm): 2
//
record.smiles: Fc1ccc(-c2nc3sc(-c4ccc(Cl)cc4)nn3c2-c2nc3ccccc3[nH]2)cc1
zone of inhibition at 500 µg/mL (mm): 3
//
record.smiles: Cc1ccc(-c2nn3c(-c4nc5cc([N+](=O)[O-])ccc5[nH]4)c(-c4ccc(F)cc4)nc3s2)cc1
zone of inhibition at 500 µg/mL (mm): 2

---

- procedure.text: Cytotoxicity against African green monkey Vero cells assessed as growth inhibition at 62.5 ug/ml after 72 hrs by MTT assay
- Format: cell-based
- experimental.context: chlorocebus sabaeus, read-out: GI
Kind request: treat 9% as inclusive, so inhibition at 72 h, 62.5 ug/ml at 9% or higher is y, anything lower is n.

record.smiles: Cc1nn2c(-c3nc4cc(Cl)ccc4[nH]3)c(-c3ccc(Cl)cc3)nc2s1
label.value: n

record.smiles: COc1ccc(-c2nc3sc(-c4ccc(C)cc4)nn3c2-c2nc3cc(Cl)ccc3[nH]2)cc1
label.value: n

record.smiles: COc1ccc(-c2nc3sc(C)nn3c2-c2nc3ccccc3[nH]2)cc1
label.value: n

record.smiles: Cc1nn2c(-c3nc4ccccc4[nH]3)c(-c3ccc(F)cc3)nc2s1
label.value: y

record.smiles: Cc1ccc(-c2nn3c(-c4nc5cc(Cl)ccc5[nH]4)c(-c4ccc(Cl)cc4)nc3s2)cc1
label.value: n

record.smiles: Cc1ccc(-c2nc3sc(-c4ccc(Cl)cc4)nn3c2-c2nc3ccccc3[nH]2)cc1
label.value: y

record.smiles: Fc1ccc(-c2nc3sc(-c4ccc(Cl)cc4)nn3c2-c2nc3ccccc3[nH]2)cc1
label.value: y

record.smiles: Cc1ccc(-c2nc3sc(C)nn3c2-c2nc3ccccc3[nH]2)cc1
label.value: n

record.smiles: Cc1ccc(-c2nn3c(-c4nc5cc([N+](=O)[O-])ccc5[nH]4)c(-c4ccc(F)cc4)nc3s2)cc1
label.value: y

record.smiles: Cc1ccc(-c2nn3c(-c4nc5ccccc5[nH]4)c(-c4ccc(Cl)cc4)nc3s2)cc1
label.value: y
